Measured Mean of the sums of FIC50 (mean ΣFIC50) of individual entries
System: P. falciparum Cam3.II lines
METHOD_NOTES: Isobologram analyses (fixed-ratio drug combinations)
Format: cell-based, Plasmodium falciparum
DETAILS: combined with WLL; Asynchronous, 72 hr; Cam3.II K13C580Y
Lab note: write the figure by itself, no unit.

COMPOUND: CN(C)c1ccc2nc3ccc(=[N+](C)C)cc-3sc2c1 [MB, methylene blue]
TESTED_TARGET: P. falciparum Cam3.II lines
Mean of the sums of FIC50 (mean ΣFIC50): 1.20
//
COMPOUND: Clc1ccc2c(N3CCN(CCCN4CCN(c5ccnc6cc(Cl)ccc56)CC4)CC3)ccnc2c1 [PPQ, piperaquine]
TESTED_TARGET: P. falciparum Cam3.II lines
Mean of the sums of FIC50 (mean ΣFIC50): 1.37
//
COMPOUND: CC(=O)N1CCN(c2ccc(CN(C(=O)/C=C/c3ccc(C(C)(C)C)cc3)[C@@H](Cc3ccccc3)C(=O)N3CCN(Cc4ccc(C#N)cc4)CC3)cc2)CC1 [ACT-451840]
TESTED_TARGET: P. falciparum Cam3.II lines
Mean of the sums of FIC50 (mean ΣFIC50): 1.27
//
COMPOUND: CCN(CC)CCCC(C)Nc1ccnc2cc(Cl)ccc12 (stereo not shown) [CQ, chloroquine]
TESTED_TARGET: P. falciparum Cam3.II lines
Mean of the sums of FIC50 (mean ΣFIC50): 1.53
//
COMPOUND: CCCCN(CCCC)CC(O)c1cc(Cl)cc2c1-c1ccc(Cl)cc1/C2=C/c1ccc(Cl)cc1 (stereo not shown) [LMF, lumefantrine]
TESTED_TARGET: P. falciparum Cam3.II lines
Mean of the sums of FIC50 (mean ΣFIC50): 1.24
//
COMPOUND: O=C(CC1NCCCC1O)Cn1cnc2cc(Br)c(Cl)cc2c1=O (stereo not shown) [HFG, halofuginone]
TESTED_TARGET: P. falciparum Cam3.II lines
Mean of the sums of FIC50 (mean ΣFIC50): 1.46

Attention now shifts to the item below.
Query (compound): O=C1C(O)=C([C@H]2CC[C@H](c3ccc(Cl)cc3)CC2)C(=O)c2ccccc21 [ATQ, atovaquone] ; field requested: Mean of the sums of FIC50 (mean ΣFIC50)
1.22
